Here, each record is paired with measured inhibition at 10 µM data.
Target: vanilloid receptor (VR1) (Homo sapiens)
Construct: expressed in transfected cells; host or cells: CHO K1 cells (ECACC), stably transfected
Sequence (Q8NER1 whole entry): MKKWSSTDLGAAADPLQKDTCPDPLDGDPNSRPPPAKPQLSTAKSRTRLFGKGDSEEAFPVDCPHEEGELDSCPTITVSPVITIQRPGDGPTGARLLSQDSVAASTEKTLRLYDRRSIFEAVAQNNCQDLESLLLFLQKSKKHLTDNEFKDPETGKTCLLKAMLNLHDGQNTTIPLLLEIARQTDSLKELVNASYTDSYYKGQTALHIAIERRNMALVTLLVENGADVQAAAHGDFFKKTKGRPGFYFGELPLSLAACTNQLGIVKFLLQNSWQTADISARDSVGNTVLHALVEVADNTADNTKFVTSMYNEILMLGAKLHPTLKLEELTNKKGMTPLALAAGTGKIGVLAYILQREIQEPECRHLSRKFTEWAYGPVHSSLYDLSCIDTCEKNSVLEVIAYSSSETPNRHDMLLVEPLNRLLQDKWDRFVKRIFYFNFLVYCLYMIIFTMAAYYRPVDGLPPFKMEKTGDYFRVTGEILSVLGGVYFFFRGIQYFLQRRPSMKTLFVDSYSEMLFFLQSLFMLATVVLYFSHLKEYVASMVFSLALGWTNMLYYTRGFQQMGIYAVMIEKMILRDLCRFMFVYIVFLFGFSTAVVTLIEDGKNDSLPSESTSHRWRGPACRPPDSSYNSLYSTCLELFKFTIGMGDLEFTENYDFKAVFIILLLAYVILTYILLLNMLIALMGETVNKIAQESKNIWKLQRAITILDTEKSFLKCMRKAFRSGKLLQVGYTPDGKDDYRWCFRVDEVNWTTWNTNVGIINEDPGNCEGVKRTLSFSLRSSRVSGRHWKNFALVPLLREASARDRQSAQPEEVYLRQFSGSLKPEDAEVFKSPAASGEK
Assay: Functional testing on vanilloid receptor (VR1): FLIPR Ca2+ inflow assay in CHO K1 cells stably transfected with the VR1 gene
Type: cell-based
Details: CHO-K1, inhibition compared to 10 μM CP (capsaicin)
Kindly provide the numeric value in % only, without the unit symbol.

In the examples that follow, each entry is paired with its recorded inhibition at 10 µM.
mol: O=C(/C=C/c1ccc(C(F)(F)F)nc1N1CCCCC1)N1CCC2(CC1)CC(c1cccc(Cl)c1)=NO2
quantity_measured: inhibition at 10 µM
recorded_result: 52

mol: O=C(/C=C/c1cccc(Br)c1)N1CCC2(CC1)CC(c1ccccc1)=NO2
quantity_measured: inhibition at 10 µM
recorded_result: 3

mol: CC(C)(C)c1ccc(NC(=O)N2CCC3(CC2)CC(c2cccc(F)c2)=NO3)cc1
quantity_measured: inhibition at 10 µM
recorded_result: 83

Next:
Lookup: Given the entry CC(C)(C)c1ccc(/C=C/C(=O)N2CCC3(CC2)CC(c2ccccc2)=NO3)c(Br)c1 , report its measured inhibition at 10 µM.
Found: 66

---

Biological target: rat-species vanilloid receptor 1 (VR1/TRPV1) (Rattus norvegicus, UniProt O35433)
Construct: endogenous in cells; host or cells: primary cells dissociated from rat dorsal root ganglia (DRG)
Sequence (O35433 whole entry): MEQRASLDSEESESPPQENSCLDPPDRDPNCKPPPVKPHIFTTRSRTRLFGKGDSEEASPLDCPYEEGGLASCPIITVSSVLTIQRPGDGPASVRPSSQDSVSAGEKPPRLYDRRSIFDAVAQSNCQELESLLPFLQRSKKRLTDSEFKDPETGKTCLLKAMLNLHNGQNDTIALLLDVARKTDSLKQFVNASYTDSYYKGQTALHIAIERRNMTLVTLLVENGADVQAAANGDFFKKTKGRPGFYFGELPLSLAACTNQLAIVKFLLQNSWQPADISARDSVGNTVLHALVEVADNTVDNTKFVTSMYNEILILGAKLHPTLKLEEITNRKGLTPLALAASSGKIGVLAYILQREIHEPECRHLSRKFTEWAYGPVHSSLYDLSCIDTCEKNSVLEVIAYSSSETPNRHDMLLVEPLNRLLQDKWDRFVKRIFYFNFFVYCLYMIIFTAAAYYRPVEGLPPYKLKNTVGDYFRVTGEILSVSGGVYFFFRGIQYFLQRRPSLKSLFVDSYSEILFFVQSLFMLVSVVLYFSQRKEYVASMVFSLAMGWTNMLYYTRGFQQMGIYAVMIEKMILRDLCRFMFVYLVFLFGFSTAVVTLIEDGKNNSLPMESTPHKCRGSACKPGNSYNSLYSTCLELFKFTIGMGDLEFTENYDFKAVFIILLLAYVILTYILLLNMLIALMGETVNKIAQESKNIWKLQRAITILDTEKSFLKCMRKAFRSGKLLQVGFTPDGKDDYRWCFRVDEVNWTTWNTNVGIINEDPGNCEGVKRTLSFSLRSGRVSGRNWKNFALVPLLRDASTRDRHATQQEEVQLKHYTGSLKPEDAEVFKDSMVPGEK
Assay: Functional testing on vanilloid receptor 1 (VR1/TRPV1): FLIPR Ca2+ inflow assay in rat dorsal root ganglia cells (% activation / % inhibition vs capsaicin)
Format: cell-based
Settings: stimulation compared to 10 μM CP (capsaicin)
The following compounds are listed with their measured activation at 10 µM values.
Return type: number; implicit unit %.

As a guide, the following entries are already answered.
compound: COc1cccc(C2=NOC3(CCN(C(=O)Nc4cccc(SC)c4)CC3)C2)c1 [Compound 59]
activation at 10 µM, %: 0.51
--
compound: CC(C)c1ccc(C=CC(=O)N2CCC3(CC2)CC(c2ccccc2)=NO3)cc1 [Compound 325]
activation at 10 µM, %: -6

In the following, a different compound is considered.
Lookup: # get_value(readout='activation at 10 µM', item= COc1cccc(C2=NOC3(CCN(C(=O)Nc4ccc(C)cc4)CC3)C2)c1 [Compound 146] )
Found: -0.13

---

Target: rat-species vanilloid receptor 1 (VR1/TRPV1) (Rattus norvegicus, UniProt O35433)
Construct: endogenous in cells; host or cells: primary cells dissociated from rat dorsal root ganglia (DRG)
Test: Functional testing on vanilloid receptor 1 (VR1/TRPV1): FLIPR Ca2+ inflow assay in rat dorsal root ganglia cells (% activation / % inhibition vs capsaicin)
Format: cell-based
Settings: stimulation compared to 10 μM CP (capsaicin)
quantity_measured: activation at 10 µM
Returns: string containing the number followed by the unit.

Below are worked cases with known answers.
mol: CC(C)(C)c1ccc(/C(=C/C(=O)N2CCC3(CC2)CC(c2cccc(F)c2)=NO3)c2ccc(Cl)c(Cl)c2)cc1
recorded_result: 3%
--
mol: Cc1ccc(C2=NOC3(CCN(C(=O)Nc4ccc(Cl)c(C(F)(F)F)c4)CC3)C2)cc1
recorded_result: -0.47%
--
mol: CC(C)(C)c1ccc(NC(=O)N2CCC3(CC2)CC(c2ccc(Cl)cc2)=NO3)cc1
recorded_result: -0.2%

Shifting focus to the compound that follows.
Lookup: Consider the compound O=C(Nc1ccc(OC(F)(F)F)cc1)N1CCC2(CC1)CC(c1ccccc1)=NO2 and give its measured activation at 10 µM.
Found: 2.55%
